Test system: MCF7
EXPERIMENTAL_PROTOCOL: NCI tumour cell line growth inhibition, 48 h
Activity calls are given as the source filed them. Cut-off read from the data, not from the text of the source: active = GI50 up to about 1.1 µM and inactive = higher.
ASSAY_METRIC: GI50

Asked: Kindly state the measured GI50 obtained for C[C@@H](C[C@@H](O)[C@H](O)C(C)(C)O)[C@H]1CC=C2[C@]3(C)[C@H](O)C[C@H]4C(C)(C)[C@H](O)CC[C@]4(C)[C@H]3CC[C@@]21C with MCF7.
Given back: 17.2 µM (inactive)

Asked: Kindly state the measured GI50 obtained for O=C1NNC(=O)c2ccccc2SSc2ccccc2C(=O)NNC(=O)c2ccccc2SSc2ccccc21 with MCF7.
Given back: 6.05 µM (inactive)

Asked: Kindly state the measured GI50 obtained for Cn1c(Nc2ccccc2)c(/C=N\c2ccccc2)c(=O)n(C)c1=O with MCF7.
Given back: > 100 µM (inactive)

Asked: Kindly state the measured GI50 obtained for COc1ccc2c(c1)OCc1c-2oc2ccccc2c1=O with MCF7.
Given back: > 100 µM (inactive)

Asked: Kindly state the measured GI50 obtained for COc1cc(OC)c(NC2=NCCO2)cc1Cl with MCF7.
Given back: 49.1 µM (inactive)

Asked: Kindly state the measured GI50 obtained for Nc1nc2c(ncn2Cc2ccccc2CO)c(=O)[nH]1 with MCF7.
Given back: > 100 µM (inactive)

Asked: Kindly state the measured GI50 obtained for O=C1Cc2c([nH]c3c(Cl)cccc23)-c2ccccc2N1 with MCF7.
Given back: > 100 µM (inactive)

Asked: Kindly state the measured GI50 obtained for O=C(NNS(=O)(=O)c1ccc(Br)cc1)c1ccc(Cl)cc1NC(=O)C12CC3CC(CC(C3)C1)C2 with MCF7.
Given back: 11.7 µM (inactive)

Asked: Kindly state the measured GI50 obtained for COc1ccc(C2c3cc4c(cc3OC(N3CCOCC3)C2C)OCO4)cc1 (stereo not given) with MCF7.
Given back: 26.1 µM (inactive)

Asked: Kindly state the measured GI50 obtained for CC(C)(C)C1=C(Br)C(C(C)(C)C)OP1(=O)O (stereo not given) with MCF7.
Given back: > 100 µM (inactive)
